Origin of the recorded values: patent US20210070843A1

Each item that follows carries a reported max. MFI.
# SYSTEM_UNDER_TEST: cell surface-expressed H3N2 WN/05 HA trimer (influenza A virus A/Wisconsin/67/2005 (H3N2))
# PROTOCOL_DETAILS: flow cytometry, HA-expressing 293T
Dear colleague, please return just the value in MFI, with no unit written.

Below are worked cases with known answers.
• S06 (antibody, V domains shown) VH: EVQLVESGGGLVQPGGSLRLSCAASGFTIGGGWIHWVRQAPGKGLEWVAFIGPYGGSTFYADSVKGRFTISADTSKNTAYLQMNSLRAEDTAVYYCARFNFGFWNHMDYWGQGTLVTVSS VL: DIQMTQSPSSLSASVGDRVTITCRASQDVSSWVAWYQQKPGKAPKLLIYGTTFLHSGVPSRFSGSGSGTDFTLTISSLQPEDFATYYCQQYYNGPLTFGQGTKVEIKR = 135
• S51 (antibody, V domains shown) VH: EVQLVESGGGLVQPGGSLRLSCAASGFTIDDWGIHWVRQAPGKGLEWVAWIWPYGGFTSYADSVKGRFTISADTSKNTAYLQMNSLRAEDTAVYYCARFGFVDWNLMDYWGQGTLVTVSS VL: DIQMTQSPSSLSASVGDRVTITCRASQDVWGYVAWYQQKPGKAPKLLISYTTYLYSGVPSRFSGSGSGTDFTLTISSLQPEDFATYYCQQYYNSPVTFGQGTKVEIKR = 340
• P10 (antibody, V domains shown) VH: EVQLVESGGGLVQPGGSLRLSCAASGFTIDNSWIHWVRQAPGKGLEWVASIWPFGGYTYYADSVKGRFTISADTSKNTAYLQMNSLRAEDTAVYYCARFGNVFDWYMDYWGQGTLVTVSS VL: DIQMTQSPSSLSASVGDRVTITCRASQDVNSNVAWYQQKPGKAPKLLIYWAGYLYSGVPSRFSGSGSGTDFTLTISSLQPEDFATYYCQQSSDFPITFGQGTKVEIKR = 117
• S45 (antibody, V domains shown) VH: EVQLVESGGGLVQPGGSLRLSCAASGFTINGSSIHWVRQAPGKGLEWVAYIGPFGGSTYYADSVKGRFTISADTSKNTAYLQMNSLRAEDTAVYYCARFWHGYNLYMDYWGQGTLVTVSS VL: DIQMTQSPSSLSASVGDRVTITCRASQDVGWWVAWYQQKPGKAPKLLIYGARFLYSGVPSRFSGSGSGTDFTLTISSLQPEDFATYYCQQYFNGPLTFGQGTKVEIKR = 529

// next item, max. MFI requested
Query: # return recorded max. MFI for input P38 (antibody, V domains shown) VH: EVQLVESGGGLVQPGGSLRLSCAASGFTINDGGIHWVRQAPGKGLEWVAFIGPYGGSTFYADSVKGRFTISADTSKNTAYLQMNSLRAEDTAVYYCAGFIGDYSSYHGVMDYWGQGTLVTVSS VL: DIQMTQSPSSLSASVGDRVTITCRASQDVWGYVAWYQQKPGKAPKLLISWPGGLYSGVPSRFSGSGSGTDFTLTISSLQPEDFATYYCQQYSSFPLTFGQGTKVEIKR
Reply: 137
